B1: Steroid hormone receptor ERR2, residues 100 to 176; numbered along this chain, O95718 (parent)
chain: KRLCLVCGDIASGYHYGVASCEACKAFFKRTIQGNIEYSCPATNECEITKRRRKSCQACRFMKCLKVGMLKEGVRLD

- Variants of: B1
- Experiment: abundance fitness (aPCA) (normalised: wild type 0, dead -1); higher = more abundant; growth selection in yeast, the domain comes from the species named
- Run Conditions: Homo sapiens
Property Measured: abundance fitness
Lab note: write the figure by itself, no unit.

// abundance fitness lookup, variant = Y16C , result: -0.213

Note to self: abundance fitness recorded for I36L was -0.162

abundance fitness measured on Q33F = -0.577

Notebook: Y14K , abundance fitness read as 0.03

Per the record, K29Q has abundance fitness of 0.129

Record S55G . Reported abundance fitness: 0.336

// abundance fitness lookup, variant = A23V , result: -0.014

The variant identified as K50I registered its abundance fitness at 0.112

Notebook: E45W , abundance fitness read as -0.981

Documented abundance fitness of Q33R : -0.307

Recorded result, R53G , abundance fitness: 0.049

# variant G8P ; its abundance fitness = -0.725

So, R30L ? Its abundance fitness was -0.466

The reported abundance fitness of the variant R51E was 0.152

Sample Q33Y ; abundance fitness observed: -0.054

Measured abundance fitness of S20V : 0.34

Kindly note the recorded abundance fitness for Q57C , which is -0.152

abundance fitness reported for this variant H15T : -0.356

Measured abundance fitness, K1M : 0.013

Just so you know, measured abundance fitness for R2T came out at -0.263

Given item A23N , the value recorded as its abundance fitness is -0.658

For this variant ( C40R ), measured abundance fitness is -0.734

Value of measured abundance fitness for the entry R51I : -0.269

Recorded abundance fitness (variant I10T ): 0.02

Record summary for K54Y : reported abundance fitness = 0.091

// sample C40A , its abundance fitness was -0.91

Given item S20I , the value recorded as its abundance fitness is 0.26
